Values from patent US20250019387A1

- experimental system: KRAS G12C and cRAF (Ras-binding domain) interaction (Homo sapiens (Human), UniProt P01116, C118S/C51S/C80L/G12C)
- Sequence (P01116 other isoform, or with tags, fused parts or gaps G12C/C51S/C80L/C118S): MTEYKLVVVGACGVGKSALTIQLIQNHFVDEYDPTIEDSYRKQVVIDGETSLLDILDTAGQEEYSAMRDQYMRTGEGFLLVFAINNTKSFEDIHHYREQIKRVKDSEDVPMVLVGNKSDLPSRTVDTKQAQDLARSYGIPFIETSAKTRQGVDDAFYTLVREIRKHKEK
- test name: Inhibition of KRAS G12C and cRAF binding (AlphaScreen)
- stated conditions: additional exemplary compounds; KRAS G12C and cRAF binding; read-out: RAF1 RBD IC50
value kind: IC50

Answered examples (3):
C=CC(=O)N1C[C@H](N(C)c2nc(OCC34CCCN3CCC4)nc3c2CCN(c2cccc4cccc(Cl)c24)C3)[C@H]1C
> 500 nM
O=C(/C=C/CN1CCOCC1)N1CC2(CCN(c3nc(OC[C@@]45CCCN4C[C@H](F)C5)nc4c(F)c(-c5cccc6cccc(Cl)c56)ncc34)C2)C1
> 500 nM
C=CC(=O)N1C[C@H](N(C)c2nc(OCC34CCCN3CCC4)nc3c2CCN(c2cccc4cccc(Cl)c24)C3)C[C@@H]1C#N
100 to 500 nM

Could you now consider this next molecule?
Reported IC50 ( "COC/C=C/C(=O)N1CC[C@@H](N(C)c2nc(OCC34CCCN3CCC4)nc3c(F)c(-c4cccc5cccc(Cl)c45)ncc23)C1" ) = 10 to 100 nM

* * *

Each entry below carries its recorded pIC50.
- experimental system: KRAS G12C and cRAF (Ras-binding domain) interaction (Homo sapiens (Human), UniProt P01116, C118S/C51S/C80L/G12C)
- test name: Inhibition of KRAS G12C and cRAF binding (AlphaScreen)
- stated conditions: additional exemplary compounds; KRAS G12C and cRAF binding; read-out: RAF1 RBD IC50
pIC50: −log10 of the molar value.

Illustrative cases are given below, each with its answer.
C=CC(=O)N1C[C@H](F)[C@@H](N(C)c2nc(OC[C@@]34CCCN3C[C@H](F)C4)nc3c(F)c(-c4cccc5cccc(Cl)c45)ncc23)C1 [drawing 2208]
7.00 to 8.00
C=CC(=O)N1CC(CN(C)c2nc(OC[C@@]34CCCN3C[C@@H](F)C4)nc3c(F)c(-c4cccc5cccc(Cl)c45)ncc23)C1
< 6.30
C=CC(=O)N1CCC(N(c2nc(OCC34CCCN3CCC4)nc3c2CCN(c2cccc4cccc(Cl)c24)C3)C2CC2)C1 (centres unmarked)
< 6.30
CN(c1nc(OCC23CCCN2CCC3)nc2c(F)c(-c3cccc4cccc(Cl)c34)ncc12)[C@@H]1CCN(C#N)C1
> 8.00
O=C(/C=C/CN1CCOCC1)N1C[C@H]2C[C@@H]1CN2c1nc(OC[C@@]23CCCN2C[C@H](F)C3)nc2c(F)c(-c3cccc4cccc(Cl)c34)ncc12
< 6.30

Entry under test: "CN(CCS(=O)(=O)/C=C/CN1CC(F)C1)c1nc(OCC23CCCN2CCC3)nc2c1CCN(c1cccc3cccc(Cl)c13)C2" . Its pIC50 was 6.30 to 7.00

The measured pIC50 associated with "C=CC(=O)N1C[C@H](N(C)c2nc(OCC34CCCN3CCC4)nc3c2CCN(c2cccc4cccc(Cl)c24)C3)C[C@H]1CC#N" reads < 6.30

Reported pIC50 of C=CC(=O)N1CCC(N(c2nc(OCC34CCCN3CCC4)nc3c(F)c(-c4cccc5cccc(Cl)c45)ncc23)C2CC2)C1 (centres unmarked) : < 6.30

Looking up "C#Cc1c(F)ccc2cccc(-c3ncc4c(N(C)[C@H]5CCN(C(=O)C=C)C5)nc(OC[C@]56CCCN5C[C@H](F)C6)nc4c3F)c12" , I see its pIC50 listed as < 6.30

Record summary for "CN(c1nc(OC[C@@]23CCCN2C[C@H](F)C3)nc2c1CCN(c1cccc3cccc(Cl)c13)C2)[C@@H]1CCN(C(=O)/C=C/c2ccncn2)C1" : reported pIC50 = < 6.30

* * *

- experimental system: KRAS G12C and cRAF (Ras-binding domain) interaction (Homo sapiens (Human), UniProt P01116, C118S/C51S/C80L/G12C)
- test name: Inhibition of KRAS G12C and cRAF binding (AlphaScreen)
- stated conditions: GMPPNP-loaded KRAS G12C, 19-20 hours incubation with compound; read-out: IC50 (Inhibition of KRAS G12C and cRAF Binding)
value kind: IC50

CC(C)OC(=O)/C=C/C(=O)N1CC[C@@H](N(C)c2nc(OC[C@@H]3CCCN3C)nc3c2CCN(c2cccc4cccc(Cl)c24)C3)C1
10 to 100 nM
Cc1nccc(/C=C/C(=O)N2CCC[C@@H](Nc3nc(OC[C@@]45CCCN4C[C@H](F)C5)nc4c(F)c(-c5cccc6cccc(Cl)c56)ncc34)C2)n1
100 to 500 nM
CN(c1nc(OCC23CCCN2CCC3)nc2c1CCN(c1cccc3cccc(Cl)c13)C2)[C@@H]1CCN(C(=O)/C=C/c2nc([C@H]3C[C@@H]3F)no2)C1
10 to 100 nM
C=CS(=O)(=O)C1CCN(c2nc(OC[C@@H]3CCCN3C)nc3c2CCN(c2cccc4cccc(Cl)c24)C3)C1 (stereo partly drawn)
> 500 nM
C=CC(=O)N1C[C@H](O)[C@@H](N(C)c2nc(OC[C@@]34CCCN3C[C@H](F)C4)nc3c(F)c(-c4cccc5cccc(Cl)c45)ncc23)C1
100 to 500 nM
CN(CC1CN(C(=O)/C=C/c2ccncn2)C1)c1nc(OC[C@@]23CCCN2C[C@H](F)C3)nc2c1CCN(c1cccc3cccc(Cl)c13)C2
10 to 100 nM

With those in mind, consider the next molecule.
Recorded IC50 (molecule "C#Cc1c(F)ccc2cccc(-c3ncc4c(N(C)[C@@H]5CCN(C(=O)C=C)C5)nc(OC[C@]56CCCN5C[C@H](F)C6)nc4c3F)c12" ): 10 to 100 nM

* * *

- experimental system: KRAS G12C and cRAF (Ras-binding domain) interaction (Homo sapiens (Human), UniProt P01116, C118S/C51S/C80L/G12C)
- test name: Inhibition of KRAS G12C and cRAF binding (AlphaScreen)
- stated conditions: additional exemplary compounds; KRAS G12C and cRAF binding; read-out: RAF1 RBD IC50
value kind: IC50

Solved entries:
CN(C)C/C=C/C(=O)N1CC[C@@H](N(C)c2nc(OCC34CCCN3CCC4)nc3c2CCN(c2cccc4ccc(F)c(Cl)c24)C3)C1
0.1 to 0.5 µM
C=CC(=O)N1CC[C@@H](N(C)c2nc(OC[C@@H]3CCCN3C)nc3c(F)c(-c4cccc5cccc(Cl)c45)ncc23)C1
> 0.5 µM
C=CC(=O)N1CC[C@H](Nc2nc(OC[C@@]34CCCN3C[C@H](F)C4)nc3c2CCN(c2cccc4cccc(Cl)c24)C3)C1
> 0.5 µM

Measured IC50, "CC(C)C/C=C/S(=O)(=O)CCN(C)c1nc(OCC23CCCN2CCC3)nc2c1CCN(c1cccc3cccc(Cl)c13)C2" : > 0.5 µM

For record "CN(C)C/C=C/C(=O)N1CC(CN(C)c2nc(OCC34CCCN3CCC4)nc3c(F)c(-c4cccc5ccc(F)c(Cl)c45)ncc23)C1" the listed IC50 is 0.01 to 0.1 µM

What the record says about "C=CC(=O)N1CC(CN(C)c2nc(OC[C@]34CCCN3C[C@H](F)C4)nc3c2CCN(c2cccc4cccc(Cl)c24)C3)C1" : IC50 is 0.1 to 0.5 µM

Item: CN(C)C/C=C/S(=O)(=O)C1CCCN(c2nc(OCC34CCCN3CCC4)nc3c2CCN(c2cccc4cccc(Cl)c24)C3)C1 (stereo not shown) | IC50: 0.01 to 0.1 µM

In plain terms, "Cc1nccc(/C=C/C(=O)N2CC3CC(C2)N3c2nc(OC[C@@]34CCCN3C[C@H](F)C4)nc3c(F)c(-c4cccc5cccc(Cl)c45)ncc23)n1" has a documented IC50 of > 0.5 µM

For reference, reported IC50 for C=CS(=O)(=O)C1CCCN(c2nc(OCC34CCCN3CCC4)nc3c2CCN(c2cccc4cccc(Cl)c24)C3)C1 (stereo not shown) stands at 0.01 to 0.1 µM

Reported IC50 of C=CC(=O)N1CCC(CNc2nc(OC[C@@]34CCCN3C[C@H](F)C4)nc3c(F)c(-c4cccc5cccc(Cl)c45)ncc23)C1 (stereo partly shown) : > 0.5 µM

For "CN(C)C/C=C/C(=O)N1CC(CN(C)c2nc(OCC34CCCN3CCC4)nc3c2CCN(c2cccc4cccc(Cl)c24)C3)C1" the molecule record lists IC50 as 0.1 to 0.5 µM

# IC50 of "C=CC(=O)N1CC(CN(C)c2nc(OCC34CCCN3CCC4)nc3c2CCN(c2cccc4cccc(Cl)c24)C3)C1" = 0.1 to 0.5 µM

Entry under test: "Cc1nccc(/C=C/C(=O)N2[C@@H]3CC[C@H]2CN(c2nc(OC[C@@]45CCCN4C[C@H](F)C5)nc4c(F)c(-c5cccc6cccc(Cl)c56)ncc24)C3)n1" . Its IC50 was > 0.5 µM
